Source of measurements: the METLIN SMRT retention time set (Domingo-Almenara et al. 2019)

experiment: gradient 5% acetonitrile 3 min, to 50% in 2 min, to 85% in 15 min, held 3 min, 100 µL/min; conditions: column: Zorbax Extend-C18 2.1 x 50 mm; eluents: water / acetonitrile, 0.1% formic acid
endpoint: RP-LC retention time (s)
Hi! Could you send only the number? It should be in s, unit omitted.

Exercise: Could you tell me which RP-LC retention time is on file for CCn1cnnc1C1CCN(C(=O)c2sccc2C)CC1 ?
Solution: 561

Exercise: Could you tell me which RP-LC retention time is on file for CCNC(=O)c1nc(C(=O)NCc2ccc(F)cc2F)cs1 ?
Solution: 780

Exercise: Could you tell me which RP-LC retention time is on file for Cc1ccc(S(=O)(=O)N2CCC(c3nc(C(=O)N4CCOCC4)c(C)o3)CC2)cc1 ?
Solution: 824

Exercise: Could you tell me which RP-LC retention time is on file for Cc1ccc(CNC(=O)c2cn(C)c3c(c(C)nn3-c3ccc(F)cc3)c2=O)o1 ?
Solution: 803

Exercise: Could you tell me which RP-LC retention time is on file for CCN1C(=O)CCC2(C(=O)NCCc3c[nH]c4ccccc34)CCCC=C12 (configuration not stated) ?
Solution: 743

Exercise: Could you tell me which RP-LC retention time is on file for COc1ccc(Br)cc1CNC(=O)CCC(=O)N1Cc2cccn2-c2ccccc21 ?
Solution: 993

Exercise: Could you tell me which RP-LC retention time is on file for CC(NC(=O)C1CCN(c2cncnc2N2CCOCC2)CC1)c1ccc(F)cc1 (configuration not stated) ?
Solution: 628

Exercise: Could you tell me which RP-LC retention time is on file for CCN1C(=O)COc2ccc(-c3nc(NC(=O)c4cccc(Br)c4)sc3C)cc21 ?
Solution: 1150

Exercise: Could you tell me which RP-LC retention time is on file for COc1nn(C)cc1C(=O)Nc1nnc(-c2cc(C)oc2C)o1 ?
Solution: 666

Exercise: Could you tell me which RP-LC retention time is on file for COc1ccc(N2CCN(CCCNC(=O)NC3COc4ccc(OC)cc4C3)CC2)cc1 (configuration not stated) ?
Solution: 687

Exercise: Could you tell me which RP-LC retention time is on file for CCc1ccc(S(=O)(=O)N2CCC3(CC2)NCCN=C3NCc2ccccc2)cc1 ?
Solution: 742

Exercise: Could you tell me which RP-LC retention time is on file for CCc1ccc(NS(=O)(=O)c2cc3n(c2)CCCN(C)C3=O)cc1 ?
Solution: 739

Exercise: Could you tell me which RP-LC retention time is on file for COc1ccc(-c2noc(C3CCCN3C(=O)CNC(=O)c3cccs3)n2)cc1 (configuration not stated) ?
Solution: 788

Exercise: Could you tell me which RP-LC retention time is on file for Cc1ccc(C)c(C(=O)NC(c2ccccc2)c2nnc(N3CCCC3)o2)c1 (configuration not stated) ?
Solution: 841

Exercise: Could you tell me which RP-LC retention time is on file for CCN1C(=O)CCc2cc(NC(=O)Cc3ccc(OC)cc3Cl)ccc21 ?
Solution: 647

Exercise: Could you tell me which RP-LC retention time is on file for CCn1cc(CC(=O)Nc2ccc(OC)c(OC)c2)c2cccnc21 ?
Solution: 664

Exercise: Could you tell me which RP-LC retention time is on file for Cc1c(C(=O)C(=O)N2CCc3ccccc32)c2ccccc2n1C ?
Solution: 902

Exercise: Could you tell me which RP-LC retention time is on file for Cc1cc(C(=O)N2CCCCC2c2nncn2CC2CC2)nn1C (configuration not stated) ?
Solution: 629

Exercise: Could you tell me which RP-LC retention time is on file for O=C(Cn1cnc2c(sc3nc(-c4ccccc4)ccc32)c1=O)Nc1ccc(F)cc1F ?
Solution: 999

Exercise: Could you tell me which RP-LC retention time is on file for Cc1cccc(-c2noc(CN3C(=O)COc4ccc(Cl)cc43)n2)c1 ?
Solution: 1160

Exercise: Could you tell me which RP-LC retention time is on file for CC(C)Oc1cc2oc(=O)cc(-c3ccccc3)c2cc1CCC(=O)N1CCN(c2ccccn2)CC1 ?
Solution: 647

Exercise: Could you tell me which RP-LC retention time is on file for CCCS(=O)(=O)c1nc2ccc(NS(=O)(=O)c3ccc(F)c(C)c3)cc2s1 ?
Solution: 983
